Where these numbers come from: ChEMBL document CHEMBL3045465

Reported Ki values for a set of compounds
Target: GABA-A receptor; alpha-5/beta-3/gamma-2 (Homo sapiens, UniProt P18507+P28472+P31644)
Sequence (P18507 whole entry): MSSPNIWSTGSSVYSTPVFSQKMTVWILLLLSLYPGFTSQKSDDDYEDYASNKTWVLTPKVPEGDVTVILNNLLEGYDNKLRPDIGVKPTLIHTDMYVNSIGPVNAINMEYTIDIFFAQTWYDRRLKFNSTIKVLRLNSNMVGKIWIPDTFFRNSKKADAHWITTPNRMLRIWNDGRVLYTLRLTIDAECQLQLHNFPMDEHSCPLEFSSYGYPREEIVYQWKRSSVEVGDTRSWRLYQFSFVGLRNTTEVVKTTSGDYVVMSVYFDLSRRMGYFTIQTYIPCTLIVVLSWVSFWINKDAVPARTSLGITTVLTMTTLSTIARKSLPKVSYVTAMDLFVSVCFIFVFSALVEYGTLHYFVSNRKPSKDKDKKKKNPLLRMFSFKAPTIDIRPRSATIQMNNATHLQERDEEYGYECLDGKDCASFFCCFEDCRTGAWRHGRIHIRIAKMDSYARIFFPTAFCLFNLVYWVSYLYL
Sequence (P28472 whole entry): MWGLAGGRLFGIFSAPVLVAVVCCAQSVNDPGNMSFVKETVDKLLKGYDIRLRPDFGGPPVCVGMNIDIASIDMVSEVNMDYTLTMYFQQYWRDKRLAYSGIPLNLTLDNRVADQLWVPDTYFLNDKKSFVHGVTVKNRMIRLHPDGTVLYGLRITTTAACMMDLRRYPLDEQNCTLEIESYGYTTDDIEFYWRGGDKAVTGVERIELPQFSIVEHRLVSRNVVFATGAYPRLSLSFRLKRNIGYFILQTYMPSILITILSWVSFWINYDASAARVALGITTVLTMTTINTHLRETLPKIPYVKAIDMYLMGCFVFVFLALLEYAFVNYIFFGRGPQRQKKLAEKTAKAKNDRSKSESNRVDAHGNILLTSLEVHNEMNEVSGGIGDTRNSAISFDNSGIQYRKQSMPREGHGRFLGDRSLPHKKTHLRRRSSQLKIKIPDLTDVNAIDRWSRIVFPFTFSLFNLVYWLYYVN
Sequence (P31644 whole entry): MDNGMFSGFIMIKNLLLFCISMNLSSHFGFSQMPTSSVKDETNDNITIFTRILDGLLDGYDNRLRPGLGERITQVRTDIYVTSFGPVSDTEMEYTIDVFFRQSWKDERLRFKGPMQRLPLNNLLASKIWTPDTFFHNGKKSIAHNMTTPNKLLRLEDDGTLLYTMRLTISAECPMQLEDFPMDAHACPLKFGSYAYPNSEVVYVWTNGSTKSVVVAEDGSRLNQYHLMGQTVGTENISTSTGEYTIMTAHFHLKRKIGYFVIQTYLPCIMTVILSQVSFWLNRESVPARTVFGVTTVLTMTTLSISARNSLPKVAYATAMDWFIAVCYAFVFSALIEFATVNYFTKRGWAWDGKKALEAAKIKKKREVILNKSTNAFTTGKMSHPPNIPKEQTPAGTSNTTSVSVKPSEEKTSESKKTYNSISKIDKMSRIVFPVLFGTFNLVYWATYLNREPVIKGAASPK
Test: Displacement of [3H]-Ro 15-1788 from Homo sapiens (human) recombinant GABAA alpha5beta3gamma2 receptor expressed in Ltk- cells after 1 hr by liquid scintillation counting
ENDPOINT NAME: Ki (nM)

>>> df
                                  structure                        measurement_target  endpoint_name  cmp  value_observed
0  C=Cc1ccc2c(c1)C(=O)N1CCC[C@H]1c1c(C(=O)OC(C)(C)C)ncn1-2  GABA-A receptor; alpha-5/beta-3/gamma-2 (Homo sapiens, UniProt P18507+P28472+P31644)             Ki    =             2.4
1  C#Cc1ccc2c(c1)C(=O)N1CCC[C@H]1c1c(C(=O)OC(C)(C)C)ncn1-2  GABA-A receptor; alpha-5/beta-3/gamma-2 (Homo sapiens, UniProt P18507+P28472+P31644)             Ki    =              40
2  O=C(OCC(F)(F)F)c1ncn2c1[C@@H]1CCCN1C(=O)c1cc(-c3ccccc3)ccc1-2  GABA-A receptor; alpha-5/beta-3/gamma-2 (Homo sapiens, UniProt P18507+P28472+P31644)             Ki    >             333
3  O=C(OCC(F)(F)F)c1ncn2c1[C@@H]1CCCN1C(=O)c1cc(-c3ccco3)ccc1-2  GABA-A receptor; alpha-5/beta-3/gamma-2 (Homo sapiens, UniProt P18507+P28472+P31644)             Ki    =              10
4  CC(C)(C)OC(=O)c1ncn2c1[C@@H]1CCCN1C(=O)c1cc(-c3ccco3)ccc1-2  GABA-A receptor; alpha-5/beta-3/gamma-2 (Homo sapiens, UniProt P18507+P28472+P31644)             Ki    =             1.7
